Taken from patent US4716153A.

# method.notes: Stability in Japan Pharmacopoeia 1st solution (pH 1.2) at 37° C., with or without stabilizer (TLC densitometry, 232 nm)
# Format: physicochemical
# test.context: jp 1st solution; 1st solution pH 1.2, 37° C., 60 minutes, no stabilizer; read-out: residual amount after contact with 1st solution, 60 minutes
Overview of reported remaining at 1 h across a group of compounds:
Quick reminder: number only, in %, skip the unit.

Recorded results for 2 compounds are shown here.
compound | remaining at 1 h / %
CCC(=O)O[C@H]1/C=C/C=C/C[C@@H](C)OC(=O)C[C@@H](OC(C)=O)[C@H](OC)[C@@H](O[C@@H]2O[C@H](C)[C@@H](O[C@H]3C[C@@](C)(O)[C@@H](OC(=O)CC(C)C)[C@H](C)O3)[C@H](N(C)C)[C@H]2O)[C@@H](CC=O)C[C@H]1C | 15.9
CCC(=O)OC1CC(=O)OC(C)C/C=C/C=C/C(OC(C)=O)C(C)CC(CC=O)C(OC2OC(C)C(OC3CC(C)(OC(C)=O)C(OC(=O)CC)C(C)O3)C(N(C)C)C2O)C1OC (stereo not drawn) | 24.5

Switching to the query record.
Q: Could you tell me which remaining at 1 h is on file for CCCC(=O)OC1C(C)OC(OC2C(C)OC(OC3C(CC=O)CC(C)C(O)/C=C/C=C/CC(C)OC(=O)CC(O)C3OC)C(O)C2N(C)C)CC1(C)OC(=O)CC (stereo not drawn) ?
Result: 58.6
